Tested on: CCRIS mutagenicity, Ames/micronucleus/aberration tests
Experiment: CCRIS mutagenicity studies
Conditions: Test System: AMES SALMONELLA TYPHIMURIUM; Strain/Indicator: TA97A; Metabolic Activation: NONE; Method: STANDARD PLATE
Active and inactive are the calls of the source. How the calls were made is not given here.
Bench note: report the call from active, inactive

COc1ccccc1/C=C/C=C(/C#N)c1ccc(Br)cc1 :: active
CC(C)Nc1nc(Cl)nc(NC(C)C)n1 :: inactive
C#C[C@]1(OC(C)=O)CC[C@H]2[C@@H]3CCC4=CC(=O)CC[C@@H]4[C@H]3CC[C@@]21C :: inactive
CCSCCSP(=O)(OC)OC :: inactive
CCN[C@H](C)C[C@@H](C)NCC.[Cl-].[Cl-].[Pt+2] :: inactive

Proceed to the following item.
Each compound tested received a call. Report the one for CC1(C)C(C=C(Cl)Cl)C1C(=O)OCc1cccc(Oc2ccccc2)c1 (stereo unspecified) . inactive

----------
Tested on: CCRIS mutagenicity, Ames/micronucleus/aberration tests
Experiment: CCRIS mutagenicity studies
Settings: Test System: AMES SALMONELLA TYPHIMURIUM; Strain/Indicator: TA100; Metabolic Activation: HAMSTER, LIVER, S-9, PHENOBARBITAL; Method: PREINCUBATION
Activity calls are given as the source filed them. How the calls were made is not given here.
MEASUREMENT_KIND: mutagenic call

CC(=O)CN(CC(C)O)N=O (centres undefined) :: active; positive
CN(CC(O)CO)N=O (centres undefined) :: active; positive
CC(O)CN(CC(O)CO)N=O (centres undefined) :: active; positive
CC(=O)OC(C)CN(CC(C)OC(C)=O)N=O (centres undefined) :: active; positive

----------
Test system: CCRIS mutagenicity, Ames/micronucleus/aberration tests
Experiment: CCRIS mutagenicity studies
Details: Test System: E. COLI; Strain/Indicator: WP2 UVRA; Metabolic Activation: NONE; Method: PREINCUBATION
Activity calls are given as the source filed them. No rule for the calls is given here.
Form entry, call: pick from YES (active), NO (inactive)

Below, 6 compounds whose answers are already recorded.
CC(=O)c1cc(NC(=O)Nc2ccc(OCC(O)CNC(C)(C)C)c(C(C)=O)c2)ccc1OCC(O)CNC(C)(C)C (centres undefined) :: NO
Cc1[nH]c(=O)c(C#N)cc1-c1ccncc1 :: NO
CCCCN(N=O)C(N)=O :: YES
Clc1cccc(Cl)c1NC1=NCCN1 :: NO
COc1c(Cl)c(Cl)c(Cl)c(Cl)c1Cl :: NO
O.[Cu].[Cu] :: NO

I'd appreciate the recorded outcome for `O=C(CBr)c1ccc(Br)cc1` from this test. NO

Call for entry `O=C(O)/C=C/C=C/C(=O)O` : NO

What call does the record list for CC(=O)c1cc(NC(=O)NC(C)(C)C)ccc1OCC(O)CNC(C)(C)C (centres undefined) ? NO

Identify the outcome logged in this assay for the compound shown: `N` NO

# lookup: test call for `CCOC(=O)[C@H](CCc1ccccc1)N[C@@H](C)C(=O)N1[C@H](C(=O)O)C[C@H]2CCCC[C@@H]21` NO

----------
Tested on: CCRIS mutagenicity, Ames/micronucleus/aberration tests
Test: CCRIS mutagenicity studies
Settings: Test System: AMES SALMONELLA TYPHIMURIUM; Strain/Indicator: TA98; Metabolic Activation: RAT, LIVER, S-9, PCB; Method: STANDARD PLATE
Active and inactive are the calls of the source. How the calls were made is not given here.
MEASUREMENT_KIND: mutagenic call

c1ccc2c(c1)ccc1c3ccccc3ccc21 :: active; positive
Cc1c2ccccc2c(C)c2c1ccc1ccccc12 :: active; positive
Cc1cccc2c1ccc1ccccc12 :: active; positive
c1cc2ccc3ccc4ccc5cccc6c(c1)c2c3c4c56 :: active; positive
